Reference for the values: the supplement of paper PMC10567573

B1: FBXO39 (parent)
chain: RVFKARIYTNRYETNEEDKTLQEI

- Variants of: B1
- assay.name: protein stability index of a GFP-peptide fusion (GPS, HEK-293T) (PSI 1-6); higher = more stable;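 further: lentivirally expressed fusions sorted by FACS into six bins by GFP to DsRed ratio, PSI derived from sequencing read proportions per bin multiplied by bin number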
- setup.conditions: c terminus: a fixed tail appended
Mark Y for reported protein stability index of 3 or greater; mark N for anything smaller.

Answered examples (3):
# mutation.spec, classification
records = [
    ("L21F", "N"),
    ("N15G", "N"),
    ("T20Q", "N"),
]

Check if protein stability index >= 3 (inclusive). Item: `E16Y`
N

Check if protein stability index >= 3 (inclusive). Item: `T20V`
Y
